For reference, pIC50 measured on Beta-secretase 1 (Homo sapiens):
Kindly note that pIC50 refers to -log10 of the concentration in mol/L and answer with the value alone.

[
  {
    "Molecule": "Cc1ccc(Nc2nc(N/N=C/c3cccc(Br)c3)nc(N3CCOCC3)n2)cc1",
    "Outcome Measure": "pIC50",
    "Test Value": 4.00
  },
  {
    "Molecule": "CCCc1cc(=O)oc2cc(OCC(=O)NCC(=O)NCC(=O)O)ccc12",
    "Outcome Measure": "pIC50",
    "Test Value": 3.30
  },
  {
    "Molecule": "CC1CCCCN1CCNC(=O)c1cc(=O)[nH]c2ccc(S(=O)(=O)N3CCOCC3)cc12 (stereo not given)",
    "Outcome Measure": "pIC50",
    "Test Value": 4.00
  },
  {
    "Molecule": "Clc1ccc(/C=N/Nc2nc(Nc3cccc(Br)c3)nc(N3CCOCC3)n2)cc1",
    "Outcome Measure": "pIC50",
    "Test Value": 4.00
  }
]

Kindly consider the entry below.
Exam item: Find pIC50 (Beta-secretase 1 (Homo sapiens)) for the entry CC1CCCCN1CCNC(=O)c1cc(=O)[nH]c2ccc(S(=O)(=O)N3CCCCC3)cc12 (stereo not given)
Marked response: 4.00

###

Biological target: Renin (Homo sapiens) (UniProt P00797)
Sequence (whole entry): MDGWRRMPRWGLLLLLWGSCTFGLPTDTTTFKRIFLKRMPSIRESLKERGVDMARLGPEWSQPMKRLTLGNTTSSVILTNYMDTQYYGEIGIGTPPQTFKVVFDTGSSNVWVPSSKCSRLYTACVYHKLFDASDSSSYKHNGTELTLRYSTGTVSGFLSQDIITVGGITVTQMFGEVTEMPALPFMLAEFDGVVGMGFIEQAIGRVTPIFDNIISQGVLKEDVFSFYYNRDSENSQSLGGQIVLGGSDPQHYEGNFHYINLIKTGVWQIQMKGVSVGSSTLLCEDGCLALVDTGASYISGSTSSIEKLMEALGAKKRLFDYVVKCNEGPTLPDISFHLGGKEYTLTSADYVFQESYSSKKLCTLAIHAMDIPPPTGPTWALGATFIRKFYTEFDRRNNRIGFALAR
Experiment: Inhibition of renin at 50 uM after 30 mins by fluorometric assay
Outcome Measure: inhibition (%)
// note: answer is a bare numeric in %

Here are 6 compounds together with their reported answers.
[
  {
    "Item Smiles": "Cc1ccc(C(=O)Nc2cccc(NC(=O)C[n+]3ccccc3)c2)cc1",
    "inhibition, %": 0
  },
  {
    "Item Smiles": "Cc1ccc(NC(=O)c2cccc(NC(=O)C[n+]3cccc(C(=O)NCCc4ccccc4)c3)c2)cc1",
    "inhibition, %": 26
  },
  {
    "Item Smiles": "COc1ccc(NC(=O)c2cccc(NC(=O)C[n+]3cccc(C(N)=O)c3)c2)cc1",
    "inhibition, %": 0
  },
  {
    "Item Smiles": "COc1ccc(NC(=O)c2cccc(NC(=O)C[n+]3ccccc3)c2)cc1",
    "inhibition, %": 0
  },
  {
    "Item Smiles": "Cc1ccc(C(=O)Nc2cccc(NC(=O)C[n+]3cccc(C(=O)NCCc4ccccc4)c3)c2)cc1",
    "inhibition, %": 22
  },
  {
    "Item Smiles": "O=C(C[n+]1ccccc1)Nc1cccc(C(=O)Nc2ccc(Cl)cc2)c1",
    "inhibition, %": 0
  }
]

Exam item: Which inhibition is reported for this compound? O=C(C[n+]1cccc(C(=O)NCCc2ccccc2)c1)Nc1cccc(C(=O)Nc2ccc(Cl)cc2)c1
Marked response: 26
